B1: NET1 (parent)
chain: RVRPLARVTSLANLISPVRNGAVR

Variants of: B1
protocol-summary: protein stability index of a GFP-peptide fusion (GPS, HEK-293T) (PSI 1-6); higher = more stable;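 note: lentivirally expressed fusions sorted by FACS into six bins by GFP to DsRed ratio, PSI derived from sequencing read proportions per bin multiplied by bin number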
study-conditions: c terminus: a fixed tail appended

variant-annotation	protein stability index
T9E	2.87
P17F	1.56
L11A	3.98
V2A	3
L14H	3.63
L5E	3.61
R3H	2.67
R3G	3.1
R3K	2.81
R19I	3.02
I15V	3.39
R24S	2.74
R24W	2.44
A12W	1.83
L11K	3.21
V2G	3.08
R3T	2.99
L14A	3.15
N13K	2.84
V8L	2.65
I15E	4.08
V23C	2.72
L5R	3.2
L14I	3.03
R19A	2.96
L11C	2.56
T9V	2.96
I15A	4.27
R1F	3.21
N13A	2.75
A6N	2.93
T9D	3.73
L14G	3.24
A6W	2.35
V18R	3.15
P17W	1.89
A6L	2.72
P17L	2.03
R7E	2.5
A6F	2.71
N20H	3.3
A12D	3.93
V23M	3.22
V8R	2.92
R1G	3.11
P17H	2.15
